fraction ligated reference
Tested on: F1*sub RNA substrate (template-directed ligation)
Assay: fraction ligated after 30 min (ligated reads / total reads); higher = more ligase activity; sequences stand for … in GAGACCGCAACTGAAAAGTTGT…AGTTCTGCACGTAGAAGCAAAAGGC
Conditions: 42 °C

seq text	fraction ligated
TACACTTGTCTAAGACATTTGGATGGGTTGA [3d638]	0.457
TATCATTGCGTAAGACACTTTGGATGGGTTA [3d1170]	0.447
TATCACTTTCGAAGACACTTTGGATGGTTGA [3d1503]	0.0707
TATCACTGTCGTAAGACACTTTGGATGGGTTGA [1d7]	0.806
TATACTTGTCGTAAGACATTTGGTGGGTTGA [3d920]	0.0527
ATCACTTGTCGTAAGAACTTTGGATGGTTGA [3d236]	0.273
TTACTTTCGTAAGACACTTTGGATGGGTTGA [3d280]	0.0128
TATATTGTCGTAAACACTTTGGATGGGTTGA [3d765]	0.367
TTCACTTGTCTAAGACACTTTGGATGGGTTG [3d415]	0.752
TATCACTTGCGTAAGCACTTTGGAGGGTTGA [3d1655]	0.178
TATCACTTGTCGTAAGACATTTGGTGGTTGA [3d2221]	0.0037

---

fraction ligated reference
Test system: F1*sub RNA substrate (template-directed ligation)
Assay: fraction ligated after 30 min (ligated reads / total reads); higher = more ligase activity; sequences stand for … in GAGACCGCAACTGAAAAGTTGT…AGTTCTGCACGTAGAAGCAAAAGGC
Conditions: 42 °C
assay readout: fraction ligated

seq text	measured
TATCATTGTCGTAAGACATTTGGATGGTTGA [3d1266]	0.567
TATCACTTGCGTAGACACTTTGGATGGGTTGA [2d166]	0.835
TATCCTTTCGTAAGACACTTTGGATGGTTGA [3d981]	0.0298
TATCACTTGTCGTAAGACTTTGGATGGTTGA [3d2111]	0.133
TATCATTGTCGTAAGACACTTTGATGGGTTG [3d1281]	0.765
TATCACTTGTCGTAAGAACTTTGGAGGGTTA [3d2177]	0.075
TATCACTTGTGTAAGACATTTGGAGGGTTGA [3d1782]	0.0398
TATCACTTGTCTAGACCTTTGGATGGGTTGA [3d1827]	0.737
TATCACTTGTGTAAGACACTTTGGTGGGTTA [3d1801]	0.0254
TATATGTCGTAAGACACTTTGGATGGGTTGA [3d758]	0.57
TATACTTGTCGTAGACACTTTGGAGGGTTGA [3d879]	0.0209

---

System: F1*sub RNA substrate (template-directed ligation)
Test: fraction ligated after 30 min (ligated reads / total reads); higher = more ligase activity; sequences stand for … in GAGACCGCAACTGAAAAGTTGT…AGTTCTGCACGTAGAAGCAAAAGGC
Settings: 42 °C
Please enter Satisfied where fraction ligated is greater than or equal to 0.6, and Not satisfied where it is lower.

seq text	label
TATCATTGTCGTAGACACTTTGGATGGTTGA [3d1224]	Not satisfied
TATCACTTGTCGTAAGAACTGGATGGGTTGA [3d2159]	Satisfied
TATCACTTTCGTAAACACTTTGGATGGGTTA [3d1527]	Not satisfied
TACACTTGTCGTAGACACTTTGGATGGGTTA [3d670]	Not satisfied
TATCCTTGTCGTAAGACACTTTGGATGGGTTGA [1d5]	Satisfied
ATCACTTGTCGTAGACACTTTGGATGGGTTG [3d210]	Satisfied

---

System: F1*sub RNA substrate (template-directed ligation)
Assay: fraction ligated after 30 min (ligated reads / total reads); higher = more ligase activity; sequences stand for … in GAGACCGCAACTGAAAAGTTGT…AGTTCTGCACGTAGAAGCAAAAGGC
Conditions: 42 °C

seq text	fraction ligated
TATCACTTGTCGTAAGACCTTTGATGGTTGA [3d2193]	0.0397
TACACTTGTCGTAAGACACTTGGAGGGTTGA [3d717]	0.0172
ATCACTTTCGTAGACACTTTGGATGGGTTGA [3d127]	0.781
TATCACTGTCGTAAGACACTGGATGGGTTGA [3d1440]	0.824
TATCATTGTCGAGACACTTTGGATGGGTTGA [3d1201]	0.783
TATCCTTGTCTAAGACACTTTGGTGGGTTGA [3d1024]	0.19
ATACTGTCGTAAGACACTTTGGATGGGTTGA [3d48]	0.361
ATCACTTGCTAAGACACTTTGGATGGGTTGA [3d141]	0.763
TATCCTTTGTAAGACACTTTGGATGGGTTGA [3d968]	0.772
TATCACTTGTCGTAAGACACTTTGGATGGTTG [2d297]	0.531
TATCACTTGCGTAAGACATTTGGTGGGTTGA [3d1676]	0.0926
TATCACTTGCTAAGACACTTTGGATGGGTTGA [2d164]	0.822
TACACTGTCGTAAGCACTTTGGATGGGTTGA [3d574]	0.463
ATCACTTGTCGTAAGACACTGGATGGGTTGA [3d253]	0.701
TATACTTGTGTAAGACACTTGGATGGGTTGA [3d836]	0.756
TATCATTTCGTAAGCACTTTGGATGGGTTGA [3d1145]	0.786
TATCATTGTCGTAGAACTTTGGATGGGTTGA [3d1217]	0.864
TATACTTGTCGAAGACACTTTGGATGGGTTG [3d869]	0.61
TATCACTTGTCGTAAACACTTTGGTGGGTTA [3d2096]	0.057
ATCACTTGTCTAAGCACTTTGGATGGGTTGA [3d174]	0.733
ATCACTTGTCTAGACACTTTGGATGGGTTGA [3d172]	0.734
TATCAGTCGTAAGACACTTTGGATGGGTTGA [3d1121]	0.764
TATCACTTGCGTAAGAACTTTGGATGGGTTG [3d1666]	0.833
ATCACTTGTCGTAGACACTTTGGATGGGTTA [3d209]	0.728

---

System: F1*sub RNA substrate (template-directed ligation)
Assay: fraction ligated after 30 min (ligated reads / total reads); higher = more ligase activity; sequences stand for … in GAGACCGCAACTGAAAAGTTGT…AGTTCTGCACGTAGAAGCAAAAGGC
Settings: 42 °C
Please enter Met where fraction ligated is greater than or equal to 0.4, and Not met where it is lower.

seq text	label
TATACTTGTCGTAAGACACTTTGATGGGTTG [3d937]	Met
TATCACTTTTAAGACACTTTGGATGGGTTGA [3d1464]	Met
TTCACTTGTCGTAAGACACTTGGATGGTTGA [3d488]	Not met
ATCACTTGTCGAAGACCTTTGGATGGGTTGA [3d189]	Met
TATCCTTGTCGTAAGACACTTTGGAGGTTGA [3d1114]	Not met
TTCACTTGTCGTAAACACTTTGGATGGGTTA [3d450]	Not met
TATCACTTGCGTAAGACACTTTGGTGGGTTG [3d1697]	Not met
TCACTTGTCGTAAGACACTTGGATGGGTTGA [3d17]	Met
TATCACTTGCGTAAGACCTTTGATGGGTTGA [3d1668]	Met
TACACTTGTCGTAAGAACTTTGGAGGGTTGA [3d696]	Not met
TATCACTTGTCGTAACACTTTGGATGGGTTG [3d2002]	Met
TATCACTTGTCGTAGACACTGGATGGGTTGA [3d2035]	Met
TATACTTGTCTAAGACACTTTGATGGGTTGA [3d851]	Met
TATCACTTGTCTAGACACTTTGGAGGGTTGA [3d1832]	Not met
TATCCTTGCGTAAACACTTTGGATGGGTTGA [3d988]	Met
TATCATTGTCGTAAGAACTTTGGATGGGTTA [3d1253]	Met
TATCACTGTCGTAAGACACTTTGTGGGTTGA [3d1448]	Not met
TATCACTTGTCGTAAGCACTTTGGGGGTTGA [3d2141]	Not met
TATCCTTGTCGTAAGACCTTTGGTGGGTTGA [3d1085]	Not met
ATCACTTGCGTAAGACACTTTGGTGGGTTGA [3d151]	Not met
TACACTTGTCGTAAGACACTTTGGAGGTTGA [3d731]	Not met
TATATTGTCGTAAGACACTTTGGATGGTTGA [3d774]	Not met
TATCACTTGTCGTAAGCACTTGATGGGTTGA [3d2129]	Met
TATCATTGTCGTAAGACACTTTGGATGGTTA [3d1289]	Not met
